Numbers sourced from paper PMC11520566.

Listed here are compounds together with their documented melting point.

Here are 5 compounds together with their reported answers.
COc1ccc(NN=C2C(=O)NN=C2Nc2ccccc2)cc1	240 to 242 °C
N#Cc1c(Nc2ccccc2)n[nH]c1N=Cc1ccc(F)cc1	265 to 267 °C
Cc1ccc(NN=C2C(=O)NN=C2Nc2ccccc2)cc1	251 to 253 °C
CN(C)c1ccc(C=Nc2[nH]nc(Nc3ccccc3)c2C#N)cc1	284 to 285 °C
N#Cc1c(Nc2ccccc2)n[nH]c1N=Cc1ccc(Cl)cc1	273 to 275 °C

Problem: Fill in the blank: the reported melting point of "CC(=O)N(C(C)=O)c1[nH]nc(Nc2ccccc2)c1C#N" is ____.
Result: 173 to 175 °C

Problem: Fill in the blank: the reported melting point of "COc1ccc(C(=O)Nc2[nH]nc(Nc3ccccc3)c2C#N)cc1" is ____.
Result: 233 to 235 °C

Problem: Fill in the blank: the reported melting point of "O=C1NN=C(Nc2ccccc2)C1=NNc1ccc(O)cc1" is ____.
Result: 257 to 259 °C

Problem: Fill in the blank: the reported melting point of "CC(=O)c1ccc(NN=C2C(=O)NN=C2Nc2ccccc2)cc1" is ____.
Result: 265 to 267 °C

Problem: Fill in the blank: the reported melting point of "O=C1NN=C(Nc2ccccc2)C1=NNc1ccc(F)cc1" is ____.
Result: 239 to 240 °C

Problem: Fill in the blank: the reported melting point of "O=C1NN=C(Nc2ccccc2)C1=NNc1ccc(Cl)cc1" is ____.
Result: 249 to 251 °C

Problem: Fill in the blank: the reported melting point of "O=C1NN=C(Nc2ccccc2)C1=NNc1ccccc1" is ____.
Result: 215 to 217 °C

Problem: Fill in the blank: the reported melting point of "N#Cc1c(Nc2ccccc2)n[nH]c1NCc1ccccc1" is ____.
Result: 136 to 137 °C

----------
Assay: in vitro
Details: human
Listed here are compounds together with their documented pIC50.
Schema: pIC50 number; meaning minus log10 of the concentration expressed in molar units.

CC(=NNc1ccc(S(N)(=O)=O)cc1)c1ccc(NN=C2C(=O)NN=C2Nc2ccccc2)cc1	4.39

Now look at this entry.
Problem: Fill in the blank: the reported pIC50 of "N#Cc1c(Nc2ccccc2)n[nH]c1NCc1ccccc1" is ____.
Result: 4.25

----------
Listed here are compounds together with their documented Relative activity.
Target: CDK2/cyclin A2 (Homo sapiens)
Construct: purchased Promega
Assay: In vitro CDK2/cyclin A2 enzyme inhibition assay (ADP-Glo)
Format: biochemical
Settings: supplement S1; DMSO = 100; screen at 50 μM

N#Cc1c(Nc2ccccc2)n[nH]c1NCc1ccccc1 [Compound 9]	14.5
COc1ccc(NN=C2C(=O)NN=C2Nc2ccccc2)cc1 [Compound 2f]	62.1
CN(C)c1ccc(C=Nc2[nH]nc(Nc3ccccc3)c2C#N)cc1 [Compound 7d]	11.5
N#Cc1c(Nc2ccccc2)n[nH]c1N=Cc1ccc(F)cc1 [Compound 7a]	42.3

Now look at this entry.
Problem: Fill in the blank: the reported Relative activity of N#Cc1c(Nc2ccccc2)n[nH]c1N=Cc1ccc(Cl)cc1 [Compound 7b] is ____.
Result: 70.7

----------
Listed here are compounds together with their documented pIC50.
Biological target: CDK2/cyclin A2 (Homo sapiens)
Test: In vitro CDK2/cyclin A2 enzyme inhibition assay (ADP-Glo)
Details: n = 3; read-out: IC50 against CDK2/cyclin A2
Schema: pIC50 number; meaning minus log10 of the concentration expressed in molar units.

Here are 3 compounds together with their reported answers.
COc1ccc(C(=O)Nc2[nH]nc(Nc3ccccc3)c2C#N)cc1 [Compound 8b]	4.73
CN(C)c1ccc(C=Nc2[nH]nc(Nc3ccccc3)c2C#N)cc1 [Compound 7d]	5.83
CC(=NNc1ccc(S(N)(=O)=O)cc1)c1ccc(NN=C2C(=O)NN=C2Nc2ccccc2)cc1 [Compound 4]	5.42

Now look at this entry.
Problem: Fill in the blank: the reported pIC50 of N#Cc1c(Nc2ccccc2)n[nH]c1NCc1ccccc1 [Compound 9] is ____.
Result: 6.02
